Values from the NIST ThermoML archive (doi:10.1021/je049721u)

# test description: mn = molality of the nth substance listed, in mol/kg
# protocol conditions: 313.15 K; 101.3 kPa; Liquid; m2 = 0

>  <compound>
CN(C)C=O [dimethylformamide] + [O-][Cl+3]([O-])([O-])[O-].[O-][Cl+3]([O-])([O-])[O-].[Zn+2]

>  <mass density [kg/m3]>
929.529

$$$$
>  <compound>
CN(C)C=O [dimethylformamide] + [Co+2].[O-][Cl+3]([O-])([O-])[O-].[O-][Cl+3]([O-])([O-])[O-]

>  <mass density [kg/m3]>
929.529

$$$$
>  <compound>
CN(C)C=O [dimethylformamide] + [Ni+2].[O-][Cl+3]([O-])([O-])[O-].[O-][Cl+3]([O-])([O-])[O-]

>  <mass density [kg/m3]>
929.529

$$$$
>  <compound>
CN(C)C=O [dimethylformamide] + [Mn+2].[O-][Cl+3]([O-])([O-])[O-].[O-][Cl+3]([O-])([O-])[O-]

>  <mass density [kg/m3]>
929.437

$$$$
>  <compound>
CN(C)C=O [dimethylformamide] + [Cu+2].[O-][Cl+3]([O-])([O-])[O-].[O-][Cl+3]([O-])([O-])[O-]

>  <mass density [kg/m3]>
929.437

$$$$
